test_target: MycC (Homo sapiens, UniProt P01106)
Construct: endogenous in cells; host or cells: L363
Sequence (P01106 whole entry): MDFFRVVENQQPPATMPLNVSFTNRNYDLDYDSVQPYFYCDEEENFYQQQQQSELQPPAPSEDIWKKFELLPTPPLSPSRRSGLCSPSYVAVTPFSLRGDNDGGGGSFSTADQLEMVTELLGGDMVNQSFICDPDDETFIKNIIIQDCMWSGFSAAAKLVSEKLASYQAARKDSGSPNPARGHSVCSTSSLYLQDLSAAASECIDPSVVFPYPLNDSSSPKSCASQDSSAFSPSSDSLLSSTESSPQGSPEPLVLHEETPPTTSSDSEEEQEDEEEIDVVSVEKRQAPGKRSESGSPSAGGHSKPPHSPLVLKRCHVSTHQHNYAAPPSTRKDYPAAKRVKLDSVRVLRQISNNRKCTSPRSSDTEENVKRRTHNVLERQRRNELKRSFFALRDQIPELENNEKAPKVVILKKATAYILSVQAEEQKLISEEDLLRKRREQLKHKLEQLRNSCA
procedure_text: Degradation of MycC protein in L363 cells (JESS/Western blot)
Format: cell-based
protocol_conditions: L-363 cells, 24 h, 0.5 μM; read-out: % Degradation of MycC (L-363) 24 h, 0.5 μM
Field: Dmax at 0.5 µM. Provide a value for each of the molecules that follow.

Quickly give me recorded Dmax at 0.5 µM for `CN1CC2(CC(Nc3nccc(Nc4cc(C5CC5)[nH]n4)n3)C2)C1` 20 to 49%

Quickly give me recorded Dmax at 0.5 µM for `CN1CC2(CCC(Nc3nccc(Nc4cc(C5CCCC5)[nH]n4)n3)CC2)C1` 80 to 100%

Quickly give me recorded Dmax at 0.5 µM for `F[C@@H]1CNCC[C@@H]1Nc1nccc(Nc2cc(C3CC3)[nH]n2)n1` < 20%

---

test_target: MycC (Homo sapiens)
Construct: endogenous in cells; host or cells: L363
procedure_text: Degradation of MycC protein in L363 cells (JESS/Western blot)
Type: cell-based
protocol_conditions: L-363 cells, 24 h, 6 μM; read-out: % Degradation of MycC (L-363) 24 h, 6 μM
observation_type: Dmax at 6 µM

Quickly give me recorded Dmax at 6 µM for CN1CC2(CC(Nc3nccc(Nc4cc(C5CCCC5)[nH]n4)n3)C2)C1 [Compound 38] 50 to 79%

Quickly give me recorded Dmax at 6 µM for CN1CC2(CCC(Nc3nccc(Nc4cc(C5CC5)[nH]n4)n3)CC2)C1 [Compound 34] 80 to 100%

Quickly give me recorded Dmax at 6 µM for c1cc(Nc2cc(C3CC3)[nH]n2)nc(NC2CCOCC2)n1 [Compound 65] 80 to 100%

Quickly give me recorded Dmax at 6 µM for CN1CC2(CNc3nccc(Nc4cc(C5CC5)[nH]n4)n3)CC1C2 [Compound 4] < 20%

Quickly give me recorded Dmax at 6 µM for F[C@@H]1CNCC[C@@H]1Nc1nccc(Nc2cc(C3CC3)[nH]n2)n1 [Compound 44] < 20%

Quickly give me recorded Dmax at 6 µM for c1cc(Nc2cc(C3CC3)[nH]n2)nc(NC2CCNCC2)n1 [Compound 29] 80 to 100%

Quickly give me recorded Dmax at 6 µM for Cn1cc(C(=O)N2CCC(Nc3nccc(Nc4cc(C5CC5)[nH]n4)n3)CC2)nn1 [Compound 37] < 20%

Quickly give me recorded Dmax at 6 µM for c1cc(Nc2cc(C3CC3)[nH]n2)nc(NC2CCC3(CC2)CNC3)n1 [Compound 33] 80 to 100%

Quickly give me recorded Dmax at 6 µM for c1cc(Nc2cc(C3CCCC3)[nH]n2)nc(NC2CCC3(CC2)CNC3)n1 [Compound 40] 80 to 100%

---

Field: Dmax at 3 µM. Provide a value for each of the compounds that follow.
test_target: MycC (Homo sapiens)
Construct: endogenous in cells; host or cells: L363
procedure_text: Degradation of MycC protein in L363 cells (JESS/Western blot)
Assay type: cell-based
protocol_conditions: L-363 cells, 24 h, 3 μM; read-out: % Degradation of MycC (L-363) 24 h, 3 μM

Report the value of Dmax at 3 µM obtained on MycC (Homo sapiens) for c1cc(Nc2cc(C3CCCC3)[nH]n2)nc(NC2CCNCC2)n1 [Compound 32] . 80 to 100%

Report the value of Dmax at 3 µM obtained on MycC (Homo sapiens) for c1cc(Nc2cc(C3CC3)[nH]n2)nc(NC2CC3(CNC3)C2)n1 [Compound 28] . < 20%

Report the value of Dmax at 3 µM obtained on MycC (Homo sapiens) for c1cc(Nc2cc(C3CCCC3)[nH]n2)nc(NC2CCC3(CC2)CNC3)n1 [Compound 40] . 80 to 100%

Report the value of Dmax at 3 µM obtained on MycC (Homo sapiens) for Cn1cc(C(=O)N2CCC(Nc3nccc(Nc4cc(C5CC5)[nH]n4)n3)CC2)nn1 [Compound 37] . 20 to 49%

Report the value of Dmax at 3 µM obtained on MycC (Homo sapiens) for F[C@@H]1CNCC[C@@H]1Nc1nccc(Nc2cc(C3CC3)[nH]n2)n1 [Compound 44] . 20 to 49%

Report the value of Dmax at 3 µM obtained on MycC (Homo sapiens) for c1cc(Nc2cc(C3CC3)[nH]n2)nc(NC2CCNCC2)n1 [Compound 29] . 80 to 100%

Report the value of Dmax at 3 µM obtained on MycC (Homo sapiens) for c1cc(Nc2cc(C3CC3)[nH]n2)nc(NC2CCC3(CC2)CNC3)n1 [Compound 33] . 20 to 49%

Report the value of Dmax at 3 µM obtained on MycC (Homo sapiens) for CN1CC2(CC(Nc3nccc(Nc4cc(C5CC5)[nH]n4)n3)C2)C1 [Compound 36] . 20 to 49%

Report the value of Dmax at 3 µM obtained on MycC (Homo sapiens) for c1cc(Nc2cc(C3CC3)[nH]n2)nc(NC2CCOCC2)n1 [Compound 65] . 80 to 100%

Report the value of Dmax at 3 µM obtained on MycC (Homo sapiens) for CN1CCC(C(=O)Nc2nccc(Nc3cc(C4CC4)[nH]n3)n2)CC1 [Compound 35] . < 20%

Report the value of Dmax at 3 µM obtained on MycC (Homo sapiens) for Cn1cc(C(=O)N2CC3(CC(Nc4nccc(Nc5cc(C6CCCC6)[nH]n5)n4)C3)C2)nn1 [Compound 39] . 20 to 49%

Report the value of Dmax at 3 µM obtained on MycC (Homo sapiens) for CN1CC2(CCC(Nc3nccc(Nc4cc(C5CC5)[nH]n4)n3)CC2)C1 [Compound 34] . 80 to 100%

Report the value of Dmax at 3 µM obtained on MycC (Homo sapiens) for CN1CCC(CNc2nccc(Nc3cc(C4CCCC4)[nH]n3)n2)CC1 [Compound 1] . < 20%

Report the value of Dmax at 3 µM obtained on MycC (Homo sapiens) for CN1CC2(CNc3nccc(Nc4cc(C5CC5)[nH]n4)n3)CC1C2 [Compound 4] . 20 to 49%

Report the value of Dmax at 3 µM obtained on MycC (Homo sapiens) for CN1CC2(CC(Nc3nccc(Nc4cc(C5CCCC5)[nH]n4)n3)C2)C1 [Compound 38] . 20 to 49%

Report the value of Dmax at 3 µM obtained on MycC (Homo sapiens) for c1cc(Nc2cc(C3CCCC3)[nH]n2)nc(NC2CC3(CNC3)C2)n1 [Compound 30] . 80 to 100%

Report the value of Dmax at 3 µM obtained on MycC (Homo sapiens) for CN1CC2(CCC(Nc3nccc(Nc4cc(C5CCCC5)[nH]n4)n3)CC2)C1 [Compound 20] . 80 to 100%

Report the value of Dmax at 3 µM obtained on MycC (Homo sapiens) for CN1CC2(CCC(N(C)c3nccc(Nc4cc(C5CC5)[nH]n4)n3)CC2)C1 [Compound 49] . 80 to 100%
